test system: UACC-62; assay: NCI tumour cell line growth inhibition, 48 h
Calls of active or inactive are those of the source. Cut-off read from the data, not from the text of the source: active = GI50 up to about 1.1 µM and inactive = higher.
A correct response names exactly one class from t for active, f for inactive

COCOc1cc(OC)c(Br)cc1C/C(=N/O)C(=O)OC	f
CC/N=C(/C#N)NCC	f
N=C(N)Cn1cnc2ccccc21	f

Prompt: Could you kindly confirm the outcome this assay logged for COc1ccc(N2C(=O)C3c4[nH]c5ccc(C)cc5c4C4CCC(C(C)C)CC4C3C2=O)cc1 (stereo not given) ?
Completion: f

Prompt: Could you kindly confirm the outcome this assay logged for CC(=O)O[C@H]1C(=O)[C@@]2(C)[C@H]([C@H](OC(=O)c3ccoc3)[C@]3(O)C[C@H](OC(=O)[C@H](O)[C@@H](NC(=O)c4ccccc4)c4ccccc4)C(C)=C1C3(C)C)[C@]1(OC(C)=O)CO[C@@H]1C[C@@H]2O ?
Completion: t

Prompt: Could you kindly confirm the outcome this assay logged for C/C(=N\NC(N)=S)c1ccc(C)cc1C ?
Completion: f

Prompt: Could you kindly confirm the outcome this assay logged for CC(C)=CC(=O)CC(=O)C(=O)NCCNC(=O)C(=O)CC(=O)C=C(C)C ?
Completion: f

Prompt: Could you kindly confirm the outcome this assay logged for CCCCCCCCCCCCCCCCCCOP(=O)([O-])OCC[N+](C)(C)C [OCTADECYLPHOSPHONOCHOLINE] ?
Completion: f

Prompt: Could you kindly confirm the outcome this assay logged for Cc1cc(C)nc(NS(=O)(=O)c2ccc(Nc3c4ccccc4nc4c(C(=O)NNCCO)cccc34)cc2)n1 ?
Completion: f

Prompt: Could you kindly confirm the outcome this assay logged for O=C(O)C(O)C(O)C(O)C(=O)CO (stereo not given) ?
Completion: f

Prompt: Could you kindly confirm the outcome this assay logged for OCCN(CCO)c1ccc2c(C(F)(F)F)cc(C(F)(F)F)nc2n1 ?
Completion: f

Prompt: Could you kindly confirm the outcome this assay logged for COC(=O)C(=O)c1c2ccccc2n2ccc3c4ccccc4[nH]c3c12 ?
Completion: f

Prompt: Could you kindly confirm the outcome this assay logged for COc1ccc(OC)c(-c2nc(O)c3ccccc3n2)c1 ?
Completion: f

Prompt: Could you kindly confirm the outcome this assay logged for C/C(=C\CO)CC/C=C(\C)CNc1c(F)c(F)c(F)c(F)c1F ?
Completion: f
